Hey, just so you know, these numbers are from ChEMBL document CHEMBL2169746.

# Target: DNA topoisomerase 2-alpha (Homo sapiens)
# Assay method text: Inhibition of human DNA topoisomerase-2alpha-mediated relaxation of supercoiled pBR322 at 20 uM after 30 mins using ethidium bromide staining by agarose gel electrophoresis
Would you mind labelling by inhibition? At or over 9% is 1, under is 0.

{"Molecule": "Oc1cccc(-c2cc(-c3ccccc3)nc(-c3ccccc3Cl)c2)c1", "Assigned label": 1}
{"Molecule": "COc1cc([C@@H]2c3cc4c(cc3[C@@H](O[C@@H]3O[C@@H]5CO[C@@H](C)O[C@H]5[C@H](O)[C@H]3O)[C@H]3COC(=O)[C@H]23)OCO4)cc(OC)c1O [ETOPOSIDE]", "Assigned label": 1}
{"Molecule": "Oc1ccc(-c2cc(-c3ccccc3)nc(-c3ccc(Cl)cc3)c2)cc1", "Assigned label": 1}

Ask: Tell me whether inhibition is at least 9% here: Oc1ccc(-c2cc(-c3ccsc3)nc(-c3cccc(Cl)c3)c2)cc1
Reply: 0

Ask: Tell me whether inhibition is at least 9% here: Oc1cccc(-c2cc(-c3ccc(Cl)cc3)nc(-c3ccsc3)c2)c1
Reply: 1

Ask: Tell me whether inhibition is at least 9% here: Oc1cccc(-c2cc(-c3ccco3)nc(-c3ccccc3Cl)c2)c1
Reply: 0

Ask: Tell me whether inhibition is at least 9% here: Oc1ccc(-c2cc(-c3ccccc3)nc(-c3ccccc3Cl)c2)cc1
Reply: 0

Ask: Tell me whether inhibition is at least 9% here: Oc1cccc(-c2cc(-c3cccc(Cl)c3)nc(-c3cccs3)c2)c1
Reply: 1
